Biological target: feline FcRn complex (FcRn-α subunit and β-microglobulin) (feline)
Test: SPR (Biacore), FcRn on SA chip, pH 6
measure name: Kd (nM)
Entry rule: numbers only, all in nM.

Solved entries (count: 3):
feline IgG1a mutant ID No. 313: Q311M, D312P, L314K (antibody, part only; not given: Variable domains, not shown: another chain or arm of the molecule) constant: ASTTAPSVFPLAPSCGTTSGATVALACLVLGYFPEPVTVSWNSGALTSGVHTFPAVLQASGLYSLSSMVTVPSSRWLSDTFTCNVAHPPSNTKVDKTVRKTDHPPGPKPCDCPKCPPPEMLGGPSIFIFPPKPKDTLSISRTPEVTCLVVDLGPDDSDVQITWFVDNTQVYTAKTSPREEQFNSTYRVVSVLPILHMPWKKGKEFKCKVNSKSLPSPIERTISKAKGQPHEPQVYVLPPAQEELSRNKVSVTCLIKSFHPPDIAVEWEITGQPEPENNYRTTPPQLDSDGTYFVYSKLSVDRSHWQRGNTYTCSVSHEALHSHHTQKSLTQSPGK; 18.9
feline IgG1a mutant ID No. 301: S428Y, Q311W, L314K, S434Y (antibody, part only; not given: Variable domains, not shown: another chain or arm of the molecule) constant: ASTTAPSVFPLAPSCGTTSGATVALACLVLGYFPEPVTVSWNSGALTSGVHTFPAVLQASGLYSLSSMVTVPSSRWLSDTFTCNVAHPPSNTKVDKTVRKTDHPPGPKPCDCPKCPPPEMLGGPSIFIFPPKPKDTLSISRTPEVTCLVVDLGPDDSDVQITWFVDNTQVYTAKTSPREEQFNSTYRVVSVLPILHWDWKKGKEFKCKVNSKSLPSPIERTISKAKGQPHEPQVYVLPPAQEELSRNKVSVTCLIKSFHPPDIAVEWEITGQPEPENNYRTTPPQLDSDGTYFVYSKLSVDRSHWQRGNTYTCSVYHEALHYHHTQKSLTQSPGK; 1.11
feline IgG1a mutant ID No. 288: S252Y, S428Y, D312P, S434Y (antibody, part only; not given: Variable domains, not shown: another chain or arm of the molecule) constant: ASTTAPSVFPLAPSCGTTSGATVALACLVLGYFPEPVTVSWNSGALTSGVHTFPAVLQASGLYSLSSMVTVPSSRWLSDTFTCNVAHPPSNTKVDKTVRKTDHPPGPKPCDCPKCPPPEMLGGPSIFIFPPKPKDTLYISRTPEVTCLVVDLGPDDSDVQITWFVDNTQVYTAKTSPREEQFNSTYRVVSVLPILHQPWLKGKEFKCKVNSKSLPSPIERTISKAKGQPHEPQVYVLPPAQEELSRNKVSVTCLIKSFHPPDIAVEWEITGQPEPENNYRTTPPQLDSDGTYFVYSKLSVDRSHWQRGNTYTCSVYHEALHYHHTQKSLTQSPGK; 0.0268

Quick one: Kd of feline IgG1a mutant ID No. 348: S252Y, S428M, S434F, Q311H (antibody, part only; not given: Variable domains, not shown: another chain or arm of the molecule) constant: ASTTAPSVFPLAPSCGTTSGATVALACLVLGYFPEPVTVSWNSGALTSGVHTFPAVLQASGLYSLSSMVTVPSSRWLSDTFTCNVAHPPSNTKVDKTVRKTDHPPGPKPCDCPKCPPPEMLGGPSIFIFPPKPKDTLYISRTPEVTCLVVDLGPDDSDVQITWFVDNTQVYTAKTSPREEQFNSTYRVVSVLPILHHDWLKGKEFKCKVNSKSLPSPIERTISKAKGQPHEPQVYVLPPAQEELSRNKVSVTCLIKSFHPPDIAVEWEITGQPEPENNYRTTPPQLDSDGTYFVYSKLSVDRSHWQRGNTYTCSVMHEALHFHHTQKSLTQSPGK ?
0.00949

Origin of the recorded values: patent US20240400708A1
